Target Or Test System: human wildtype CFTR (Homo sapiens, UniProt P13569)
Sequence (P13569 whole entry): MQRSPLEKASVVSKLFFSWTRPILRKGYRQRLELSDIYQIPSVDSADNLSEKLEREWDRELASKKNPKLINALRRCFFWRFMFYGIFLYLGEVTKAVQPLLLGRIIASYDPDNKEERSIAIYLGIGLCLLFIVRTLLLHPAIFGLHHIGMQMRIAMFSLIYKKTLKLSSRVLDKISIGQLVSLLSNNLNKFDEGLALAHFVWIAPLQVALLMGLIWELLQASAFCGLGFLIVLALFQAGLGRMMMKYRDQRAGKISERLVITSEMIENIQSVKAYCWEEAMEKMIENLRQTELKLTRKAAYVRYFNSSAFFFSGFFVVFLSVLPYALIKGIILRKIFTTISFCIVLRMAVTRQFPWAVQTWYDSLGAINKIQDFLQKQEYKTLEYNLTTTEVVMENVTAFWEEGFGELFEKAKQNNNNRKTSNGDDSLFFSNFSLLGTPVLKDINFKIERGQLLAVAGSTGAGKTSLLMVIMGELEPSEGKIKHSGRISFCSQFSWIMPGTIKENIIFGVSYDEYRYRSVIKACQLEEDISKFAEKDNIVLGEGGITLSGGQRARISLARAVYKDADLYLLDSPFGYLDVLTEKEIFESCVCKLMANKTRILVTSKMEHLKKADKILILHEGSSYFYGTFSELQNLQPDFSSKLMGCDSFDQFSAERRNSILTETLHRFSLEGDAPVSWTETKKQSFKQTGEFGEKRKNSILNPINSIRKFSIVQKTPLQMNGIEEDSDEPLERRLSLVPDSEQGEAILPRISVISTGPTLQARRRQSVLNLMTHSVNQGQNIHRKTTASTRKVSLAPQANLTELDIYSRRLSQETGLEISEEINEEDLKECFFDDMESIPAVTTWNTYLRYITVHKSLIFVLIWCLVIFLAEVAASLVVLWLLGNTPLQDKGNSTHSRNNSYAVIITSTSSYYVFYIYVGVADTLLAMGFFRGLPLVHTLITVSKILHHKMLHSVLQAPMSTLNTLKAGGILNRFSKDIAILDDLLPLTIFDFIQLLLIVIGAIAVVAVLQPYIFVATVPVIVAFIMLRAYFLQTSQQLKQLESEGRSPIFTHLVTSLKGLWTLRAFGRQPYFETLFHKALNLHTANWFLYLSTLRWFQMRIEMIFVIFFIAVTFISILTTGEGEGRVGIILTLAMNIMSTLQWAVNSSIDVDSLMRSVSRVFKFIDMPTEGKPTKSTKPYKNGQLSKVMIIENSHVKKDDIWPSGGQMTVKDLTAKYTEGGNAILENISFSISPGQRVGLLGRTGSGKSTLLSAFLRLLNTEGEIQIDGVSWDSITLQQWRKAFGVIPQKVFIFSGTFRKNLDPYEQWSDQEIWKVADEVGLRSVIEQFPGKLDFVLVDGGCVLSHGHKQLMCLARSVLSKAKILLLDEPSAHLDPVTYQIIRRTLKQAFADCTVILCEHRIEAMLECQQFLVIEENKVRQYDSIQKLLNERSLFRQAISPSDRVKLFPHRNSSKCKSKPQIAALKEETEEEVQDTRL
Assay Text: Fluorescence cell-based assay of CFTR inhibition (YFP iodide influx, FRT cells)
Design: expressed in transfected cells; host or cells: Fisher rat thyroid (FRT) cells
Run Parameters: Table 1, lower parts; given as ranges; read-out: IC50

| Molecule | IC50 |
| --- | --- |
| O=C1S/C(=C\c2ccc(-c3nn[nH]n3)cc2)C(=O)N1c1cccc(C(F)(F)F)c1 | 10 to 20 µM |
| O=C(O)c1ccc(NC(=S)C2SC(=S)N(c3cccc(C(F)(F)F)c3)C2=O)cc1O (centres unmarked) | 10 to 20 µM |
| O=C(O)c1ccc(NC(=S)C2SC(=S)N(c3cccc(C(F)(F)F)c3)C2=O)cc1 (centres unmarked) | 5 to 10 µM |
| O=C(O)c1ccc(/C=C2\SC(=O)N(c3cccc(C(F)(F)F)c3)C2=O)cc1 | 1 to 2 µM |
| O=C(O)c1ccc(SC2CC(=O)N(c3cccc(C(F)(F)F)c3)C2=O)cc1 (centres unmarked) | 5 to 10 µM |

###

Assay Text: HPLC/MS measurement of inhibitor concentration in urine after subcutaneous administration
Format: in vivo, mouse
Run Parameters: C57BL/6, mouse, urine, sc, 4 times daily for 3 days, 5 mg/kg/day, 1 hour after final dosing
Protocol: CFTR inhibitors (5-10 mg/kg/day) or saline DMSO vehicle control (0.05 mL/injection) were administrated by subcutaneous injection on the backs of neonatal mice four times a day for 3 or 7 days using a 1 cc insulin syringe, beginning at age 2 days (11 mice per group). Pkd1^flox/+; Ksp-Cre or Pkd1^flox/+ mice from the same litter were used as controls. […] Body weight was measured at day 5 (3 days after treatment), at which time there was no difference in body weight in any of the mouse groups. […]

| Molecule | concentration at 1 h / µM |
| --- | --- |
| O=C1/C(=C/c2ccc(-c3nn[nH]n3)cc2)SC(=S)N1c1cccc(C(F)(F)F)c1 [Compound 6] | 3.3 |

###

Target Or Test System: human wildtype CFTR (Homo sapiens, UniProt P13569)
Assay Text: Fluorescence cell-based assay of CFTR inhibition (YFP iodide influx, FRT cells)
Design: expressed in transfected cells; host or cells: Fisher rat thyroid (FRT) cells
Run Parameters: Table 1, upper part; CFTR inhibitory activity, given as ranges; read-out: IC50
pIC50: −log10 of the molar value.

| Structure Notation | pIC50 |
| --- | --- |
| O=C(O)c1ccc(/C=C2\SC(=S)N(c3ccc(Cl)c(C(F)(F)F)c3)C2=O)cc1 | 4.70 to 5.00 |
| O=C(O)c1cccc(/C=C2\SC(=S)N(c3ccccc3C(F)(F)F)C2=O)c1 | 4.70 to 5.00 |
| O=C(O)c1ccccc1/C=C1\SC(=S)N(c2ccc(C(F)(F)F)cc2)C1=O | 4.70 to 5.00 |
| O=C(O)c1cccc(/C=C2\SC(=S)N(c3cccc(C(F)(F)F)c3)C2=O)c1 | 5.70 to 6.00 |
| O=C1/C(=C/c2ccc(-c3nn[nH]n3)cc2)SC(=S)N1c1cccc(C(F)(F)F)c1 | 6.00 to 7.00 |
| Cc1cccc(N2C(=O)/C(=C/c3ccc(C(=O)O)cc3)SC2=S)c1 | 5.00 to 5.30 |
| O=C(O)c1cccc(/C=C2\SC(=S)N(c3ccc(C(F)(F)F)cc3)C2=O)c1 | 4.70 to 5.00 |
| O=C1/C(=C/c2ccc(S(=O)(=O)[O-])cc2)SC(=S)N1c1cccc(C(F)(F)F)c1.[Na+] | 4.52 to 4.70 |
| O=C1/C(=C/c2cc(Br)c(O)c(Br)c2)SC(=S)N1c1cccc(C(F)(F)F)c1 | 5.00 to 5.30 |
| O=C1/C(=C/c2ccc(O)c(O)c2O)SC(=S)N1c1cccc(C(F)(F)F)c1 | 4.52 to 4.70 |
| O=C(O)c1ccccc1/C=C1\SC(=S)N(c2ccccc2C(F)(F)F)C1=O | 4.70 to 5.00 |
| O=C(O)c1ccc(/C=C2\SC(=S)N(c3cc(C(F)(F)F)cc(C(F)(F)F)c3)C2=O)cc1 | 4.70 to 5.00 |
| Cc1c(N2C(=O)/C(=C/c3ccc(C(=O)O)cc3)SC2=S)cccc1C(F)(F)F | 5.00 to 5.30 |
| O=C1/C(=C/c2ccc(O)cc2)SC(=S)N1c1cccc(C(F)(F)F)c1 | 4.52 to 4.70 |
| O=C(O)c1ccccc1/C=C1\SC(=S)N(c2cccc(C(F)(F)F)c2)C1=O | 4.70 to 5.00 |
| O=C(O)c1cc(/C=C2\SC(=S)N(c3ccccc3C(F)(F)F)C2=O)ccc1O | 4.70 to 5.00 |
| O=C(O)COc1cccc(/C=C2\SC(=S)N(c3cccc(C(F)(F)F)c3)C2=O)c1 | 4.52 to 4.70 |

###

Target Or Test System: human wildtype CFTR (Homo sapiens)
Assay Text: Fluorescence cell-based assay of CFTR inhibition (YFP iodide influx, FRT cells)
Design: expressed in transfected cells; host or cells: Fisher rat thyroid (FRT) cells
Run Parameters: Table 1, upper part; CFTR inhibitory activity, given as ranges; read-out: IC50
pIC50: −log10 of the molar value.
Measured pIC50 by item
Attribute Measured: pIC50

| Molecule | Attribute Measured | Result |
| --- | --- | --- |
| O=C(O)c1ccc(/C=C2\SC(=S)N(c3ccccc3C(F)(F)F)C2=O)cc1 [Compound 20] | pIC50 | 4.70 to 5.00 |
| O=C(O)c1cc(/C=C2\SC(=S)N(c3cccc(C(F)(F)F)c3)C2=O)ccc1O [Compound 7] | pIC50 | 5.70 to 6.00 |
| O=C(O)c1cccc(/C=C2\SC(=S)N(c3ccc(F)c(C(F)(F)F)c3)C2=O)c1 [Compound 11] | pIC50 | 5.00 to 5.30 |
| Cc1cccc(N2C(=O)/C(=C/c3ccc(C(=O)O)cc3)SC2=S)c1C [Compound 13] | pIC50 | 5.00 to 5.30 |
| O=C(O)c1ccc(/C=C2\SC(=S)N(c3ccc(C(F)(F)F)cc3)C2=O)cc1 [Compound 25] | pIC50 | 4.70 to 5.00 |
| O=C(O)c1ccc(/C=C2\SC(=S)N(c3cccc(C(F)(F)F)c3)C2=O)c(O)c1 [Compound 16] | pIC50 | 5.05 to 5.15 |
| O=C(O)c1ccc(/C=C2\SC(=S)N(c3cccc(C(F)(F)F)c3)C2=O)cc1 [Compound 5, reference compound] | pIC50 | 6.00 to 7.00 |
| O=C1/C(=C/c2cc(O)c(O)c(O)c2)SC(=S)N1c1cccc(C(F)(F)F)c1 [Compound 19] | pIC50 | 4.70 to 5.00 |

###

Measured IC50 by item
Target Or Test System: UniProtKB P13569
Assay Text: Short-circuit current measurements, apical chloride current in FRT cells
Format: cell-based
Parameters: expressed in transfected cells; host or cells: FRT (Fisher rat thyroid) cells
Run Parameters: values in text; forskolin-stimulated CFTR; read-out: IC50 (short-circuit current)

| Compound | IC50 |
| --- | --- |
| O=C1/C(=C/c2ccc(-c3nn[nH]n3)cc2)SC(=S)N1c1cccc(C(F)(F)F)c1 [Compound 6] | 500 to 1000 nM |
| O=C(O)c1ccc(/C=C2\SC(=O)N(c3cccc(C(F)(F)F)c3)C2=O)cc1 [Compound 47] | 1000 to 2000 nM |
| O=C1/C(=C/c2ccc(-c3nnn[nH]3)cc2)SC(=S)N1c1cccc(C(F)(F)F)c1 [Compound 6] | 800 nM |

###

Assay Text: HPLC/MS measurement of inhibitor concentration in urine after subcutaneous administration
Assay type: in vivo, mouse
Run Parameters: C57BL/6, mouse, urine, sc, 4 times daily for 3 days, 5 mg/kg/day, 5 hour after final dosing

| Structure Notation | U | concentration at 5 h |
| --- | --- | --- |
| O=C1/C(=C/c2ccc(-c3nn[nH]n3)cc2)SC(=S)N1c1cccc(C(F)(F)F)c1 | µM | 3.6 |

###

Target Or Test System: human wildtype CFTR (Homo sapiens, UniProt P13569)
Assay Text: Fluorescence cell-based assay of CFTR inhibition (YFP iodide influx, FRT cells)
Set-up: expressed in transfected cells; host or cells: Fisher rat thyroid (FRT) cells
Run Parameters: Table 2 summary table; given as ranges; read-out: IC50
pIC50: −log10 of the molar value.
Attribute Measured: pIC50

| Molecule | Result |
| --- | --- |
| O=C(O)c1ccc(/C=C2\SC(=S)N(c3cccc(C(F)(F)F)c3)C2=O)c(O)c1 | 5.05 to 5.15 |
| O=C(O)COc1cccc(/C=C2\SC(=S)N(c3cccc(C(F)(F)F)c3)C2=O)c1 | 4.52 to 4.70 |
| O=C(O)c1ccc(/C=C2\SC(=S)N(c3ccc(F)c(C(F)(F)F)c3)C2=O)cc1 | 5.70 to 6.00 |
| O=C(O)c1cc(/C=C2\SC(=S)N(c3ccccc3C(F)(F)F)C2=O)ccc1O | 4.70 to 5.00 |
| O=C1/C(=C/c2ccc(-c3nn[nH]n3)cc2)SC(=S)N1c1cccc(C(F)(F)F)c1 | 6.00 to 7.00 |
| O=C1/C(=C/c2ccc(S(=O)(=O)[O-])cc2)SC(=S)N1c1cccc(C(F)(F)F)c1.[Na+] | 4.52 to 4.70 |
| O=C(O)c1ccc(NC(=S)C2SC(=S)N(c3cccc(C(F)(F)F)c3)C2=O)cc1 (centres unmarked) | 5.00 to 5.30 |
| O=C(O)c1cc(/C=C2\SC(=S)N(c3ccc(C(F)(F)F)cc3)C2=O)ccc1O | 4.52 to 4.70 |

From: patent US20110105565A1
